# EXPERIMENTAL SYSTEM: T1, human chemokine (C-C motif) receptor 8 (CCR8) (human, UniProt P51685 1-355)
# T1 construct: On human peripheral blood lymphocytes / PBMC (native) or on human CCR8 GFP-transfected Ba/F3 cells; also called hCCR8; human CCR8
# T1 sequence (P51685 whole entry): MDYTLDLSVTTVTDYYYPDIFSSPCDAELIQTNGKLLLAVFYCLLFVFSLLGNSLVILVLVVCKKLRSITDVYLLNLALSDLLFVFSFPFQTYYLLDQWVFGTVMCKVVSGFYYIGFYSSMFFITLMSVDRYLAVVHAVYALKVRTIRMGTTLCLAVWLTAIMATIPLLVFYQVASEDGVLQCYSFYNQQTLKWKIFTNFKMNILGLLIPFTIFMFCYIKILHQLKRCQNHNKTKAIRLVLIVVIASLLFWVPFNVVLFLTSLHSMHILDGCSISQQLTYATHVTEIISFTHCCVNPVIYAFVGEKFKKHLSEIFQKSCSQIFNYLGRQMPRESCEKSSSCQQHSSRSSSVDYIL
# METHOD SUMMARY: flow cytometry blocking, PBMC CCR8+ CD4+ cells; competitor PE-AB5 (its MFI is read)
# Method: For blocking studies, 100 μL of the cell suspension were incubated with 10 μg purified isotype control, AB1, AB2, AB3, AB4, AB5, AB8, AB9, AB10, AB11, AB12, AB13, AB14, AB15, and Commercial ABI antibodies, or isotype control, as blocking agents. […]
QUANTITY NAME: MFI
No unit in the answer, please; the number alone is enough.

Please review the following examples before continuing.
binder="AB13 (antibody, V domains shown, Hybridoma monoclonal; also called antibody 13; clone 13) VH: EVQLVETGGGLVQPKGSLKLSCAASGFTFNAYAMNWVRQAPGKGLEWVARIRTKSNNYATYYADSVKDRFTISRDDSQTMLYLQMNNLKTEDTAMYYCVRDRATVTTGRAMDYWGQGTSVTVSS VL: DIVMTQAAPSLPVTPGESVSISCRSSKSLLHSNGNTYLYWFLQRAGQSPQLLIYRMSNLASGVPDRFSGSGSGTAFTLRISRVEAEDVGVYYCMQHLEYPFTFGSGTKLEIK" observed_result=1020
binder="AB11 (antibody, V domains shown, Hybridoma monoclonal; also called antibody 11; clone 11) VH: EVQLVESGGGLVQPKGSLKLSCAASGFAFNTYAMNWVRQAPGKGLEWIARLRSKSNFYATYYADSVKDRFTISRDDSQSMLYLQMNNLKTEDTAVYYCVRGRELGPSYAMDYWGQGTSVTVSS VL: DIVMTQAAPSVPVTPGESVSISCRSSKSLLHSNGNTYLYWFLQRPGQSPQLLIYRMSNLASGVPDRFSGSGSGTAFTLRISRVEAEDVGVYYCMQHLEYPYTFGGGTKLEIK" observed_result=1020
binder="AB2 (antibody, V domains shown, Hybridoma monoclonal; also called antibody 2; clone 2) VH: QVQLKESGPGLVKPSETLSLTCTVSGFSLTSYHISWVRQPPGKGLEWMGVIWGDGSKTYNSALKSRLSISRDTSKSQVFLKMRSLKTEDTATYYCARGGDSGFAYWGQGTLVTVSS VL: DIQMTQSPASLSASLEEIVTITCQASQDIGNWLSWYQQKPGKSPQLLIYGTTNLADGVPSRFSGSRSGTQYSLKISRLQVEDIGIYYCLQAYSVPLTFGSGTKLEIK" observed_result=475

Query: For AB14 (antibody, V domains shown, Hybridoma monoclonal; also called antibody 14; clone 14) VH: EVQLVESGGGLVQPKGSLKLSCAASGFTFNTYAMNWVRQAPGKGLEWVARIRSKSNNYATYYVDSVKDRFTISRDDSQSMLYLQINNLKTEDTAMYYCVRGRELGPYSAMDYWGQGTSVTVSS VL: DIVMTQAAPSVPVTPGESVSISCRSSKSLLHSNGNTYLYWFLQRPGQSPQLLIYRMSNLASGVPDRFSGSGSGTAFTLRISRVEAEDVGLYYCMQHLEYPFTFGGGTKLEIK , what is its reported MFI?
Result: 969

Query: For AB3 (antibody, V domains shown, Hybridoma monoclonal; also called antibody 3; clone 3) VH: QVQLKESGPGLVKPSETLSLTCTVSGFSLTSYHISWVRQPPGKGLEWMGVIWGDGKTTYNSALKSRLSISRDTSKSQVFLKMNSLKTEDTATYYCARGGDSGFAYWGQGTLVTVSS VL: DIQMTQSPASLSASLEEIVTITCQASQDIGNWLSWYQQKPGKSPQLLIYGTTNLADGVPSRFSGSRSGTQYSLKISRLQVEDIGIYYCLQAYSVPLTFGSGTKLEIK , what is its reported MFI?
Result: 459

Query: For AB5 (antibody, V domains shown, Hybridoma monoclonal; also called antibody 5; clone 5) VH: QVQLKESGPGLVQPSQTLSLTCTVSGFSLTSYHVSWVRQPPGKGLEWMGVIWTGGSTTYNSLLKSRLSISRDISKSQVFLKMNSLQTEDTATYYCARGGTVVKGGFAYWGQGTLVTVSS VL: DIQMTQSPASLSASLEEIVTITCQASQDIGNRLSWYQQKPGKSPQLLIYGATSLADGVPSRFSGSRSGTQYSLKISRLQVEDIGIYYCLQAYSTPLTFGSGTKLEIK , what is its reported MFI?
Result: 413

Query: For AB10 (antibody, V domains shown, Hybridoma monoclonal; also called antibody 10; clone 10) VH: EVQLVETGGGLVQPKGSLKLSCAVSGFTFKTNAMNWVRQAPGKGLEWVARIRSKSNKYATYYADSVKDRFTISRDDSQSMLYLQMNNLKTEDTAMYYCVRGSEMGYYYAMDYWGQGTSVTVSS VL: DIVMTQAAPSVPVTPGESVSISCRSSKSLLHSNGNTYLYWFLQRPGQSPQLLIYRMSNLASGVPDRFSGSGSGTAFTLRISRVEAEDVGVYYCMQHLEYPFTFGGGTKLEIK , what is its reported MFI?
Result: 995

Query: For AB8 (antibody, V domains shown, Hybridoma monoclonal; also called antibody 8; clone 8) VH: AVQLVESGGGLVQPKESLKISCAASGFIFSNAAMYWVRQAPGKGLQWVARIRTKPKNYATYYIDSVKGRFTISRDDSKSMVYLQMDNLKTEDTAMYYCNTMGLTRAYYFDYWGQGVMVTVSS VL: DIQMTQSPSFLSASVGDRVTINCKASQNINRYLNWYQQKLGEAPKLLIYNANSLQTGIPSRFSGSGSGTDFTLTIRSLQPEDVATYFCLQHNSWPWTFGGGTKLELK , what is its reported MFI?
Result: 953

Query: For AB4 (antibody, V domains shown, Hybridoma monoclonal; also called antibody 4; clone 4) VH: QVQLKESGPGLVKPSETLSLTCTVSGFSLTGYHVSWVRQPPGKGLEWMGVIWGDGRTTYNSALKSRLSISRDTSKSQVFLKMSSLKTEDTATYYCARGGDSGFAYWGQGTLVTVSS VL: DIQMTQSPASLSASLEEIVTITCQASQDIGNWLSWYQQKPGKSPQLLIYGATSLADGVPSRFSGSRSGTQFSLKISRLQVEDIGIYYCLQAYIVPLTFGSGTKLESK , what is its reported MFI?
Result: 411

Query: For AB15 (antibody, V domains shown, Hybridoma monoclonal; also called antibody 15; clone 15) VH: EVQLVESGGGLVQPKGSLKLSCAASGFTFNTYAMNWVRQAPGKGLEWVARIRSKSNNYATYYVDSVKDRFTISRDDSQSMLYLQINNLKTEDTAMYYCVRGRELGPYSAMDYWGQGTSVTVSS VL: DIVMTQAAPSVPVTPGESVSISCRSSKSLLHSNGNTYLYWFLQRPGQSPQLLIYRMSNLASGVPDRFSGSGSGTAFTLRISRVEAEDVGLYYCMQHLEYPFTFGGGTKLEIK , what is its reported MFI?
Result: 970

Query: For AB1 (antibody, V domains shown, Hybridoma monoclonal (mice or rats immunised); Used purified and PE-conjugated; also called antibody 1; clone 1) VH: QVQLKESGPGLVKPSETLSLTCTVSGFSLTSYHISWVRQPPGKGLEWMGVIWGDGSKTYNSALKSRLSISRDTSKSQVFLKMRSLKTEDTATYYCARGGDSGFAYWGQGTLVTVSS VL: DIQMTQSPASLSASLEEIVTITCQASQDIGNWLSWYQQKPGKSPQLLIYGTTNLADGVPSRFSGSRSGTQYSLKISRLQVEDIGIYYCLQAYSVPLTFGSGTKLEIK , what is its reported MFI?
Result: 557
